target: Protein O-GlcNAcase (Homo sapiens, UniProt O60502)
Sequence (O60502 whole entry): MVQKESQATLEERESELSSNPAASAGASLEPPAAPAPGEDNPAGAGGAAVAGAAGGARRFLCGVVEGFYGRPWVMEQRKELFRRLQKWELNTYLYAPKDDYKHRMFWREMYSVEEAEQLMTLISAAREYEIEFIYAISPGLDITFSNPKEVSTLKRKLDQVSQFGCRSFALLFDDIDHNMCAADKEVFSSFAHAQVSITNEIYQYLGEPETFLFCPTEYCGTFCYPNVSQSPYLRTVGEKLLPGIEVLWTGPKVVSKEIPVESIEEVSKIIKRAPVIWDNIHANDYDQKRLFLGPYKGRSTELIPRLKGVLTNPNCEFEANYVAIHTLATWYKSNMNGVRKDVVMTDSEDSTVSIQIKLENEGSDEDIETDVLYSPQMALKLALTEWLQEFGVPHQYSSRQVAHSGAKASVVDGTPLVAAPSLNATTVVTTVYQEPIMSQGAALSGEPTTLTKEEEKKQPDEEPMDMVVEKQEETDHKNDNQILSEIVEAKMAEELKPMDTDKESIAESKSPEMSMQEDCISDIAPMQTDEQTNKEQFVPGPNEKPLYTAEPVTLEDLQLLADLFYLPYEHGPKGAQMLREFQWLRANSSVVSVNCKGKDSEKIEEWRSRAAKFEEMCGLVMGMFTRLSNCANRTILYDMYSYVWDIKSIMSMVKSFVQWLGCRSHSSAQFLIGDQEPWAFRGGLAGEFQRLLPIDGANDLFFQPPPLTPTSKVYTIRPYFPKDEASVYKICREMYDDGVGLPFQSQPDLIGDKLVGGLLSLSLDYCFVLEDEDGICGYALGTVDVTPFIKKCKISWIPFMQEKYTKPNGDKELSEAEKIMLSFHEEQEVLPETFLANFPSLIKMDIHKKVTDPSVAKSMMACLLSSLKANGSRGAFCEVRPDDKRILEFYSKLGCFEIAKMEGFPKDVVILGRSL
parameter: pKi
Please keep in mind that pKi is minus log10 of the molar concentration; only the number is needed.

Problem: Could you share which pKi value was measured for `C=C/C=C/C(=O)N[C@H]1c2nc(CCc3ccccc3)cn2[C@H](CO)[C@@H](O)[C@@H]1O` ?
Solution: 8.39
